target-desc: Cathepsin D (CatD) (Homo sapiens (Human), UniProt P07339)
Sequence (P07339 65-412, species assumed): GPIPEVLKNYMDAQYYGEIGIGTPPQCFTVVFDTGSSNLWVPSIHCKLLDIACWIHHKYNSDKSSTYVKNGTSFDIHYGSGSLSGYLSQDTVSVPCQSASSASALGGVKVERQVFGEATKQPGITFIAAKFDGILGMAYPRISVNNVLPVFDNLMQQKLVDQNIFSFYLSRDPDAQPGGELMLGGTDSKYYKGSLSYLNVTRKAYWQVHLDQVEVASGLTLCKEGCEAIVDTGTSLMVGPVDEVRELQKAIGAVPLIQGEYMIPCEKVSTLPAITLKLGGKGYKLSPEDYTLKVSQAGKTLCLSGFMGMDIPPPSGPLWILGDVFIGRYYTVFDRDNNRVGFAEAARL
assay-protocol: CatD assay
Format: biochemical
reported-conditions: read-out: IC50 IP (μM) CatD
property-label: IC50 (µM)
Give bare numbers, in µM.

The cases that follow already have their IC50 on record.
For CN(C)C(=O)[C@]12C[C@H]1[C@@](C)(c1cc(/C(F)=C/c3ccc(Cl)cn3)ccc1F)N=C(N)S2 the compound record lists IC50 as 172

// COC[C@]12C[C@H]1[C@@](C)(c1cc(/C=C(\F)c3cnc(OC(C)C(F)(F)F)cn3)ccc1F)N=C(N)S2 (some centres unmarked) : IC50 value = 207

Form field IC50, entry COC[C@]12C[C@H]1[C@@](C)(c1cc(/C=C(\F)c3cnc(Cl)cn3)ccc1F)N=C(N)S2 : 357

# compound C[C@]1(c2cc(/C=C(\F)c3ccc(C#N)cn3)ccc2F)N=C(N)S[C@@]2(C(=O)N3CC4CCC(C3)O4)C[C@H]21 ; its IC50 = 318

Hi! Can you tell me IC50 for each of these compounds?
1. C[C@]1(c2cc(/C=C(\F)c3ccc(C#N)cn3)ccc2F)N=C(N)S[C@@]2(C(=O)N3C4CCC3COC4)C[C@H]21
2. C#CCOc1cnc(/C(F)=C/c2ccc(F)c([C@@]3(C)N=C(N)S[C@@]4(C(=O)N5[C@H]6COC[C@@H]5COC6)C[C@H]43)c2)cn1
3. COC[C@]12C[C@H]1[C@@](C)(c1cc(/C=C(\F)c3cnc(OCCC(F)(F)F)cn3)ccc1F)N=C(N)S2
4. CC1CC(C)CN(C(=O)[C@]23C[C@H]2[C@@](C)(c2cc(/C=C(\F)c4ccc(C#N)cn4)ccc2F)N=C(N)S3)C1 (some centres unmarked)
5. COC(=O)[C@]12C[C@H]1[C@@](C)(c1cc(/C=C(\F)c3ccc(Cl)cn3)ccc1F)N=C(N)S2
6. COC[C@]12C[C@H]1[C@@](C)(c1cc(/C=C(\F)c3cnc(OCC(F)F)cn3)ccc1F)N=C(N)S2
7. CN(C)C(=O)[C@]12C[C@H]1[C@@](C)(c1cc(/C=C(\F)c3ccc(C#N)s3)ccc1F)N=C(N)S2

1: 390; 2: 42; 3: 245; 4: 43.2; 5: 734; 6: 409; 7: 26.4
